Tested on: ZIKV replicon
EXPERIMENT NOTES: ZIKV replication inhibition assay (NanoLuc replicon in Vero cells)
CONDITION INFO: Zika virus, Vero, 72 h, read-out: ZIKA Cell_Nanoluc, Vero cells with stable ZIKV replicon, 72 h, Nano-Glo readout

MOLECULE | STUDY TARGET | EC50
NC1CC(C[n+]2cc([N-]C(=O)Nc3cc(NC(=O)Cc4ccccc4)cc(C(F)(F)F)c3)on2)C1 (stereo not shown) | ZIKV replicon | 1 to 20 µM
O=C(Cc1ccccc1)Nc1cc(NC(=O)[N-]c2c[n+](CC3CCCNC3)no2)cc(C(F)(F)F)c1 (stereo not shown) | ZIKV replicon | > 20 µM
O=C([N-]c1c[n+](Cc2ccc(-c3cncnc3)cc2)no1)Nc1ccnc(C(F)(F)F)c1 | ZIKV replicon | 0.1 to 1 µM
CNC(=O)[C@@H]1CCC[C@@H]([n+]2cc([N-]C(=O)Nc3cc(NC(=O)Cc4ccccc4C)cc(C(F)(F)F)c3)on2)C1 [Example 231] | ZIKV replicon | 1 to 20 µM
Cc1nc(N)ncc1-c1ccc(C[n+]2cc([N-]C(=O)Nc3cc(NC(=O)Cc4ccccc4)cc(C(F)(F)F)c3)on2)nc1 | ZIKV replicon | 1 to 20 µM
Cc1ccccc1CC(=O)Nc1cc(NC(=O)[N-]c2c[n+]([C@@H]3CCC[C@H](O)C3)no2)cc(C(F)(F)F)c1 | ZIKV replicon | 1 to 20 µM
CNC(=O)[C@H]1CCC[C@@H]([n+]2cc([N-]C(=O)Nc3cc(NC(=O)Cc4ccccc4C)cc(C(F)(F)F)c3)on2)C1 [Example 232] | ZIKV replicon | 1 to 20 µM

---

Recorded IC50 values (West Nile Virus (WNV) NS2B-NS3 protease (West Nile virus)) are given below.

COMPOUND | IC50
Cc1ccccc1CC(=O)Nc1cc(NC(=O)[N-]c2c[n+]([C@H]3CC[C@H](C(C)(C)O)CC3)no2)cc(C(F)(F)F)c1 | < 0.1 µM
CN(C)C[C@H]1CC[C@H]([n+]2cc([N-]C(=O)Nc3cc(NC(=O)Cc4ccccc4Cl)nc(C(F)(F)F)c3)on2)CC1 | 1 to 20 µM
Cc1ccccc1CC(=O)Nc1cc(NC(=O)[N-]c2c[n+]([C@H]3CCC[C@@H](CN(C)C)C3)no2)cc(C(F)(F)F)c1 (stereo in doubt) [Example 246] | < 0.1 µM
CN(C)CC1CCC([n+]2cc([N-]C(=O)Nc3cc(NC(=O)CCc4cnccn4)cc(C(F)(F)F)c3)on2)CC1 (centres unmarked) | 1 to 20 µM
Cc1noc(C)c1CC(=O)Nc1cc(NC(=O)[N-]c2c[n+]([C@H]3CC[C@H](CN(C)C)CC3)no2)cc(C(F)(F)F)c1 | 1 to 20 µM
CN(C)CC1CCC([n+]2cc([N-]C(=O)Nc3cc(NC(=O)Cc4ccccc4C(=O)O)cc(C(F)(F)F)c3)on2)CC1 (centres unmarked) | < 0.1 µM
Cc1nn(C)cc1-c1ccc(C[n+]2cc([N-]C(=O)Nc3ccnc(C(F)(F)F)c3)on2)cc1 | 0.1 to 1 µM
CN(C)[C@@H]1CCC[C@@H]([n+]2cc([N-]C(=O)Nc3cc(NC(=O)Cc4ccccc4)cc(C(F)(F)F)c3)on2)C1 | < 0.1 µM
CN(C)C[C@H]1CC[C@H]([n+]2cc([N-]C(=O)Nc3cc(NC(=O)Cc4cn(C)c5ccccc45)cc(C(F)(F)F)c3)on2)CC1 | 0.1 to 1 µM
Cc1ccccc1CC(=O)Nc1cc(NC(=O)[N-]c2c[n+]([C@H]3CC[C@H](C(=O)N(C)C)CC3)no2)cc(C(F)(F)F)c1 | < 0.1 µM
O=C([N-]c1c[n+](CC2CCCc3ccccc32)no1)Nc1ccnc(C(F)(F)F)c1 (racemic) | 0.1 to 1 µM

---

Tested on: ZIKV replicon
EXPERIMENT NOTES: ZIKV replication inhibition assay (NanoLuc replicon in Vero cells)
CONDITION INFO: Zika virus, Vero, 72 h, read-out: ZIKA Cell_Nanoluc, Vero cells with stable ZIKV replicon, 72 h, Nano-Glo readout
// EC50 lookup, one value per entry
ENDPOINT NAME: EC50

COMPOUND | VAL
Cc1ncnc(C)c1-c1ccc(C[n+]2cc([N-]C(=O)Nc3cccc(C(F)(F)F)c3)on2)nn1 [Example 184] | 100 to 1000 nM
Cc1ccccc1CC(=O)Nc1cc(NC(=O)[N-]c2c[n+]([C@@H]3CCC[C@H](CN(C)C)C3)no2)cc(C(F)(F)F)c1 (stereo in doubt) [Example 247] | 1000 to 20000 nM
O=C(CC1CC2CC1C2)Nc1cc(NC(=O)[N-]c2c[n+](Cc3ccccn3)no2)cc(C(F)(F)F)c1 (stereo not drawn) [Example 63] | 1000 to 20000 nM
O=C([N-]c1c[n+](Cc2ccccn2)no1)Nc1cc(NC(=O)C23CC(C(=O)O)(C2)C3)cc(C(F)(F)F)c1 [Example 52] | 1000 to 20000 nM
COC(=O)Cc1ccc(C[n+]2cc([N-]C(=O)Nc3cc(NC(=O)Cc4ccccc4)cc(C(F)(F)F)c3)on2)cc1 [Example 109] | 100 to 1000 nM
Cc1cnn(C)c1-c1ccc(C[n+]2cc([N-]C(=O)Nc3ccc(C#N)c(C(F)(F)F)c3)on2)cc1 [Example 238] | 1000 to 20000 nM
